Data provenance: ChEMBL document CHEMBL1150001

Below, each entry is listed alongside its reported pIC50.
# experimental_target: Muscarinic acetylcholine receptor M1 (Homo sapiens, UniProt P11229)
# Sequence (P11229 whole entry): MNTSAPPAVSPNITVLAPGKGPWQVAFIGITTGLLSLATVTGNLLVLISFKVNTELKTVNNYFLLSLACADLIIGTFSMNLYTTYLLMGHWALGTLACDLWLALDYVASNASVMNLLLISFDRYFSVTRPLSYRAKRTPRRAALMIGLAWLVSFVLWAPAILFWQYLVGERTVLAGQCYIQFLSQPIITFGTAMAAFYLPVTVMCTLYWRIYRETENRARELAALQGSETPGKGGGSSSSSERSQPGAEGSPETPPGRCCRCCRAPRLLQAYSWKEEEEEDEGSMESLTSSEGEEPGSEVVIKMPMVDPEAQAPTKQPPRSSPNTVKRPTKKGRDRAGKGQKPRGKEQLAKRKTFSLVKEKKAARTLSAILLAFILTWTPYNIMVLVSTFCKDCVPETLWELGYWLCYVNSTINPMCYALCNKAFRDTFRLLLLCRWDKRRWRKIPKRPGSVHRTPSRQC
# Type: functional, cell-based, CHO
# Description: Inhibitory activity against human Muscarinic acetylcholine receptor M1 using [3H]quinuclidinyl benzilate to label antagonist site (RQNB) in CHO cells
Field pIC50 (float): negative decimal logarithm of the concentration in molar.

Examples with their reported pIC50 follow.
>  <compound>
CC#CCO/N=C1\CN2CCC1C2 (centres undefined)

>  <test_result>
5.24

$$$$
>  <compound>
C#CCO/N=C1\CN2CCC1C2 (centres undefined)

>  <test_result>
5.02

$$$$
>  <compound>
C#CCC#CCO/N=C1\CN2CCC1C2 (centres undefined)

>  <test_result>
5.00

$$$$
>  <compound>
COCC#CCO/N=C1\CN2CCC1C2 (centres undefined)

>  <test_result>
4.37

$$$$
>  <compound>
C[N+](C)(C)CC#CCOC(=O)Nc1cccc(Cl)c1.[Cl-]

>  <test_result>
5.40

$$$$
>  <compound>
CCCC#CCO/N=C1\CN2CCC1C2 (centres undefined)

>  <test_result>
5.02

$$$$
>  <compound>
C#CCC#CCC#CCO/N=C1\CN2CCC1C2 (centres undefined)

>  <test_result>
5.69

$$$$
>  <compound>
CC(C)O/N=C1\CN2CCC1C2 (centres undefined)

>  <test_result>
5.58

$$$$

Enquiry: GET /values?readout=pIC50&item= CC(C)(C)O/N=C1\CN2CCC1C2 (centres undefined)
Return: 5.42
